# Test system: HCT-116 cells
# PROCEDURE_SUMMARY: MTS cytotoxicity assay, HCT-116
# MEASUREMENT_CONTEXT: Homo sapiens, HCT-116, 72 h, read-out: IC50 (μM) HCT-116
Items are presented alongside their recorded IC50.
Note: unit µM is implicit; provide only the numeric part.

Some entries whose results are on file:
COMPOUND	STUDY_SYSTEM	IC50, µM
CC(=O)OC[C@H]1OC(OC(C)=O)[C@H](n2cc(COCc3ccc(F)cc3)nn2)[C@@H](OC(C)=O)[C@@H]1OC(C)=O (stereo partly shown)	HCT-116 cells	4.17
CC(=O)OC[C@H]1OC(OC(C)=O)[C@H](n2cc(COCc3ccc(C)cc3)nn2)[C@@H](OC(C)=O)[C@@H]1OC(C)=O (stereo partly shown)	HCT-116 cells	6.4

Now examine the next entry.
Exam item: What measured IC50 goes with CC(=O)OC[C@H]1OC(OC(C)=O)[C@H](n2cc(COCc3ccc(C(F)(F)F)cc3)nn2)[C@@H](OC(C)=O)[C@@H]1OC(C)=O (stereo partly shown) ?
Marked response: 14.3

====

# Test system: HCT-116 cells
# PROCEDURE_SUMMARY: MTS cytotoxicity assay, HCT-116
# MEASUREMENT_CONTEXT: Homo sapiens, HCT-116, 72 h, read-out: IC50 (μM) HCT-116
Hi! Just check whether IC50 is below 7 µM. Below gives TRUE, equal or above gives FALSE.

Reference set (5 entries):
COMPOUND	CATEGORY
CC(=O)OC[C@H]1OC(OC(C)=O)[C@H](n2cc(COCc3ccc([N+](=O)[O-])cc3)nn2)[C@@H](OC(C)=O)[C@@H]1OC(C)=O (stereo partly shown)	FALSE
OCc1ccccc1 [Compound 6b, reference compound]	FALSE
CC(=O)OC[C@H]1OC(OC(C)=O)[C@H](n2cc(COCc3ccc(Br)cc3)nn2)[C@@H](OC(C)=O)[C@@H]1OC(C)=O (stereo partly shown)	TRUE
O=c1[nH]cc(F)c(=O)[nH]1 [Compound 5-FU, 5-Fluorouracil, reference compound]	TRUE
COc1ccc(COCc2cn([C@H]3C(OC(C)=O)O[C@H](COC(C)=O)[C@@H](OC(C)=O)[C@@H]3OC(C)=O)nn2)cc1 (stereo partly shown)	TRUE

Lab note: next compound to report on.
Exam item: Lab log: compare recorded IC50 with 7 µM; is it strictly lower for CC(=O)OC[C@H]1OC(OC(C)=O)[C@H](N=[N+]=[N-])[C@@H](OC(C)=O)[C@@H]1OC(C)=O (stereo partly shown) [Compound 4, reference compound] ?
Marked response: FALSE

Just for reference, paper PMC8074679 is where these values come from.
